Molecular target: MDM2 (Homo sapiens (Human), UniProt Q00987)
Sequence (Q00987 whole entry): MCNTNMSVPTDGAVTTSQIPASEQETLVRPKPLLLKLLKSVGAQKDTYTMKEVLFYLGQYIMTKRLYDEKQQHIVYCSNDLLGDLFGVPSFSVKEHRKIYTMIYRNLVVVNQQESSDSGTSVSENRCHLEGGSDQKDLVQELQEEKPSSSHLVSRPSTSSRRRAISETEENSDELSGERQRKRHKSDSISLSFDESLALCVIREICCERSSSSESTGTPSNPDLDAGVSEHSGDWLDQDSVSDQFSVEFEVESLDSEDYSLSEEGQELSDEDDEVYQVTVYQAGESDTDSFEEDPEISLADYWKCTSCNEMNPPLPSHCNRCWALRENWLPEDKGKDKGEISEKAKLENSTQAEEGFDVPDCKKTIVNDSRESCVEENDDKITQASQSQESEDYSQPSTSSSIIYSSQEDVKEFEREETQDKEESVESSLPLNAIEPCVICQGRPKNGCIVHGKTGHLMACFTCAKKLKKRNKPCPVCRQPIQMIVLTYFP
Assay: In vitro MDM2 HTRF assay (inhibition of p53-MDM2 interaction)
Conditions: GST-MDM2 / biotinylated p53 peptide
Task for the reader: assign each of the following compounds its reported pIC50.
One number for each entry, as −log10 of the molar value.

compound="COc1cc(C(=O)N2CCC[C@H](CC#Cc3cccc4c3CN(C3CCC(=O)NC3=O)C4=O)C2)ccc1NC(=O)[C@@H]1N[C@@H](CC(C)(C)C)[C@@]2(CNc3cc(Cl)ccc32)[C@H]1c1cccc(Cl)c1F (stereo partly shown) [Example 24]" recorded_measurement=8.53

Dear reader, for each entry below, please note its pIC50.
1. COc1cc(C(N)=O)ccc1NC(=O)[C@H]1N[C@H](CC(C)(C)C)[C@]2(CNc3cc(Cl)ncc32)[C@@H]1c1cccc(Cl)c1F [Example 10]
2. COc1cc(C(N)=O)ccc1NC(=O)[C@@H]1N[C@@H](CC(C)(C)C)[C@@]2(CNc3cc(Cl)ncc32)[C@H]1c1cccc(Cl)c1F [Example 9]

6.56
9.24

###

Kindly state IC50 for each of the entries shown.
Molecular target: UniProt Q00987
Assay: In vitro MDM2 HTRF assay (inhibition of p53-MDM2 interaction)
Settings: GST-MDM2 / biotinylated p53 peptide
Numbers only, in nM.

Worked examples follow.
molecule="COc1cc(C(=O)N[C@@H]2CCC[C@@H](C#Cc3cccc4c3CN(C3CCC(=O)NC3=O)C4=O)C2)ccc1NC(=O)[C@@H]1N[C@@H](CC(C)(C)C)[C@@]2(CNc3cc(Cl)ccc32)[C@H]1c1cccc(Cl)c1F (stereo partly shown) [Example 34]" quantity_kind=IC50 recorded_measurement=2
molecule="COc1cc(C(=O)N2CCCC[C@H]2CCC#Cc2cccc3c2CN([C@@H]2CCC(=O)NC2=O)C3=O)ccc1NC(=O)[C@@H]1N[C@@H](CC(C)(C)C)[C@@]2(CNc3cc(Cl)ccc32)[C@H]1c1cccc(Cl)c1F [Example 38]" quantity_kind=IC50 recorded_measurement=3.82
molecule="COc1cc(C(=O)N[C@@H]2CCC[C@H](C#Cc3cccc4c3CN(C3CCC(=O)NC3=O)C4=O)C2)ccc1NC(=O)[C@@H]1N[C@@H](CC(C)(C)C)[C@@]2(CNc3cc(Cl)ccc32)[C@H]1c1cccc(Cl)c1F (stereo partly shown) [Example 33]" quantity_kind=IC50 recorded_measurement=2.29

Consider now this further molecule.
Tell me IC50 reported for COc1cc(C(=O)N2CCCC[C@@H]2CCC#Cc2cccc3c2CN([C@H]2CCC(=O)NC2=O)C3=O)ccc1NC(=O)[C@@H]1N[C@@H](CC(C)(C)C)[C@@]2(CNc3cc(Cl)ccc32)[C@H]1c1cccc(Cl)c1F [Example 37] 1.95

###

For each record, write down the corresponding pIC50.
Molecular target: UniProt Q00987
Assay: In vitro MDM2 HTRF assay (inhibition of p53-MDM2 interaction)
Conditions: GST-MDM2 / biotinylated p53 peptide
Numbers only, as −log10 of the molar value.

compound="COc1cc(C(=O)N[C@H]2CCC[C@H](C#Cc3cccc4c3CN(C3CCC(=O)NC3=O)C4=O)C2)ccc1NC(=O)[C@@H]1N[C@@H](CC(C)(C)C)[C@@]2(CNc3cc(Cl)ccc32)[C@H]1c1cccc(Cl)c1F (some centres unmarked)" quantity_kind=pIC50 recorded_measurement=8.43

Please report pIC50 for the following compound: `COc1cc(N2CCC[C@@H](C#Cc3cccc4c3CN([C@@H]3CCC(=O)NC3=O)C4=O)C2)ccc1NC(=O)[C@@H]1N[C@@H](CC(C)(C)C)[C@@]2(CNc3cc(Cl)ccc32)[C@H]1c1cccc(Cl)c1F` 8.21
